molecules and their reported composite z-score
# assay_procedure: probe aNOTCH3 binding on compound microarray – biochemical, small-molecule microarray, 635/667 nm fluorescence, primary screen (AID 1120);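 also: probe is a biotin-tagged antibody raised against NOTCH3 rather than NOTCH3 protein; score merges spot fluorescence near 667 nm with spot signal to noise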
# test_parameters: higher = more signal
Keep the answer to the number alone.

Examples with answers:
## Input Consider the molecule C[n+]1ccc2ccc(O)cc2c1 and give its measured composite z-score.
## Output -0.0044

## Input What does the record list as composite z-score for CN(C)CCCN1C(=O)[C@@]2(c3ccc([N+](=O)[O-])cc3)CC(=O)N(C3CCCCC3)[C@@H]2c2ccc(CO)cc21 ?
## Output -0.0665

## Input Fill in the blank: the reported composite z-score of O=C1O[C@@H](c2ccccc2)[C@@H](c2ccccc2)N2[C@@H](c3ccccc3OCCO)[C@]3(C(=O)Nc4ccc(C#CC5(O)CCCCCC5)cc43)[C@@H](C(=O)NC[C@H](O)c3ccccc3)[C@H]12 is ____.
## Output 0.638

## Input Entry under review: O=C1[C@H]2C=C(Br)[C@H](C[C@@H]2OCCOCCO)[C@@]12CO2 . Reported composite z-score?
## Output -0.105

## Input Bench note: what composite z-score did CCCCC(=C=CC[C@H](O)c1ccccc1OCCO)C[C@H](O)c1cc(Cl)cc(Cl)c1O show?
## Output -0.0448

***
## Input Tell me the measured composite z-score of O=C1O[C@H](c2ccccc2)[C@H](c2ccccc2)N2[C@H]1[C@@H](C(=O)N1CCCCCCC1)[C@]1(C(=O)Nc3ccc(C#CC4=CCCCC4)cc31)[C@H]2c1ccc(O)cc1 , please.
## Output 2.37

## Input Which measured composite z-score value corresponds to CCCCCN1CC=CC23O[C@@H]4C=CCCOC(=O)C4[C@H]2C(=O)N(CCCO)[C@@H]3C1=O (stereo partly drawn) ?
## Output -0.157

## Input Reported composite z-score for CCOC(=O)C1=CC[C@@H](c2cccc(Cl)c2)N(S(=O)(=O)c2ccc(C)cc2)[C@H]1c1ccc(C#N)cc1 : what is it?
## Output 0.159

## Input So what's the measured composite z-score for this one? COc1ccc([Si](C)(C)[C@H]2[C@H](CCO)O[C@@]3(C(=O)N(Cc4cccc(N5C(=O)c6cccc7cccc5c67)c4)c4ccccc43)[C@@H]2C)cc1
## Output -0.122

## Input If you can, please state the reported composite z-score value of Cc1ccc(N2C(=O)c3ccccc3[C@@H](C(=O)NCC(C)C)[C@@H]2c2ccc(CO)cc2)nc1 .
## Output -0.465

## Input Look up composite z-score for this molecule: O=C(CS)NCCCCCNC(=O)[C@H]1C[C@H]2C(=O)N[C@@H](Cc3ccccc3)C(=O)N2[C@H]1c1cccc(OCCO)c1
## Output 0.273

## Input Quick one: composite z-score for O=C1O[C@H](c2ccccc2)[C@H](c2ccccc2)N2[C@H]1[C@@H](C(=O)NC[C@H](O)c1ccccc1)[C@]1(C(=O)Nc3ccc(C#CC4=CCCCC4)cc31)[C@H]2c1ccc(O)cc1 ?
## Output 0.0112

====

# assay_procedure: compound effects on multiple myeloma cell viability – MM1S, calcein-AM fluorescence, 48 h, basal, profiling panel (AID 1165);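 also: viability of MM1S multiple myeloma cells under basal unstimulated conditions; test concentration not given here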
# test_parameters: higher = more signal
Recorded z-score by entry
Number only, no unit.

Use these answered entries as a reference point.
## Input I would be grateful if you could share the reported z-score for Cc1ccc(S[C@]2(C(=O)NCCCN(C)C)CC(=O)N(Cc3ccccc3)[C@@H]2c2ccc(CO)cc2)cc1 .
## Output -0.569

## Input Can you look up the measured z-score of O=C1c2ccccc2[C@@]2(Cc3ccccc3N(Cc3ccccc3)C2=O)[C@H](c2ccc(CO)cc2)N1Cc1ccccc1C(F)(F)F for me?
## Output 0.166

## Input Please look up its z-score: COCCOC(=O)N1C(=O)[C@@]2(c3cc(C#CCC(C(=O)OC)C(=O)OC)ccc31)[C@H](c1ccccc1OCCO)N1[C@H](c3ccccc3)[C@H](c3ccccc3)OC(=O)[C@H]1[C@@H]2C(=O)Nc1nc2ccccc2s1
## Output -0.569

## Input Given the entry CC(C)C[C@@H]1NC(=O)[C@@H]2C[C@H](C(=O)NCCCCN(C)C)[C@H](c3ccc(O)cc3)N2C1=O , report its measured z-score.
## Output 0.12

## Input Any idea what z-score was measured for O=C1c2ccccc2[C@](Cc2ccccc2I)(C(=O)O)[C@H](c2ccc(CO)cc2)N1Cc1ccccc1C(F)(F)F ?
## Output -1.58

***
## Input Item CCOC1=C2C(c3ccc(C)cc3)N(S(=O)(=O)c3ccc(C)cc3)CC2n2c(=O)n(-c3ccccc3)c(=O)n2C1 (configuration not stated) has what recorded z-score?
## Output -0.255

## Input Using the record for C#C[C@H](O[Si](C#CCCCCCC)(C(C)C)C(C)C)c1ccccc1 , report its z-score.
## Output 0.665

====

Measured composite z-score accompanies every entry in the list below.
# System: PRMT1 (protein arginine N-methyltransferase 1)
# assay_procedure: small molecules binding arginine methyltransferase PRMT1 – biochemical, small-molecule microarray, 635 nm fluorescence, primary screen (AID 1088);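 also: binding of Prmt1 protein to compounds spotted on small-molecule microarray slides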
# test_parameters: higher = more signal
Form field (numeric): enter value without unit.

## Input If you can, please state the reported composite z-score value of O=S(=O)(NCCCO)c1ccc(Br)cc1 .
## Output 0.607

Next:
## Input GET /values?readout=composite z-score&item= COCCOC(=O)N1C(=O)[C@@]2(c3cc(C#CC4=CCCCC4)ccc31)[C@H](C(=O)N1CCN(c3ncccn3)CC1)[C@H]1C(=O)O[C@H](c3ccccc3)[C@H](c3ccccc3)N1[C@@H]2c1ccc(OCCO)cc1
## Output 1.55

## Input Look up composite z-score: COc1ccc([Si](C)(C)[C@@H]2[C@@H](CCO)O[C@]3(C(=O)N(Cc4ccccc4)c4ccc(N(C=O)c5ccccc5)cc43)[C@H]2C)cc1
## Output 1.28

## Input Can you share its composite z-score? I mean this compound: OCCCc1cc[n+](Cc2cccc(OC(F)(F)F)c2)cc1
## Output 1.54

====

# Test system: Inhibin beta A chain (activin A)
# assay_procedure: small molecules binding activin A – biochemical, small-molecule microarray, 635 nm fluorescence scan, primary screen (AID 1107);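 also: mouse activin A protein probed at 4.33 µg/mL on printed slides; score merges bound-protein fluorescence near 667 nm with spot signal-to-noise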
# test_parameters: INHBA, higher = more signal
measurement_kind: composite z-score

Here are 4 compounds together with their reported answers.
## Input Name the reported composite z-score value associated with the compound CC(=O)NCCCC[C@@H]1NC(=O)[C@@H]2C[C@H](C(=O)NCCCCCC[N+](C)(C)C)[C@H](c3cccc(OCCO)c3)N2C1=O
## Output 0.811

## Input composite z-score lookup needed for CC(C)(C)OC(=O)CC[C@@]1(C(=O)N2CCOCC2)N=C(c2ccc(OCCCO)cc2)O[C@@H]1c1ccccc1N=[N+]=[N-] , thanks.
## Output 1.03

## Input Field request: composite z-score | item: O=C1C2C=CC(C(O)c3ccc(B(O)O)cc3)N(Nc3ccc([N+](=O)[O-])cc3)C2C(=O)N1c1ccccc1 (configuration not stated)
## Output 0.0102

## Input Would you kindly share the measured composite z-score for COc1ccc([Si](C)(C)[C@@H]2[C@@H](CCO)O[C@]3(C(=O)N(Cc4ccccc4)c4ccc(N(C=O)c5ccccc5)cc43)[C@H]2C)cc1 ?
## Output 0.328

Continuing:
## Input Which composite z-score is listed for CC(C)NC(=O)[C@@]1(c2ccc([N+](=O)[O-])cc2)CC(=O)N(C(C)C)[C@@H]1c1ccc(CO)cc1 ?
## Output -1.45

## Input Consider the compound shown here: CC(C)C[C@@H]1NC(=O)[C@@H]2C[C@H](C(=O)NCCCCN(C)C)[C@H](c3ccc(O)cc3)N2C1=O What is its recorded composite z-score?
## Output -0.134

## Input Which composite z-score reading was recorded for the compound CC(c1ccccc1)C(O)C1C=CC2C(=O)N(c3ccccc3)C(=O)C2N1Nc1ccccc1F (configuration not stated) ?
## Output 0.913

====

# assay_procedure: budding yeast growth modifiers under rapamycin – strain BY4716, OD600, 96 h, primary screen (AID 1091); also: test concentration not given here
# test_parameters: S. cerevisiae BY4716 + rapamycin, called active from +8 up or from −8 down
The source made the active and inactive calls.
Output constraint: value belongs to active, inactive

## Input # fetch the recorded call for COc1ccc([Si](C)(C)[C@H]2[C@H](CC(=O)N3Cc4ccccc4C[C@H]3CO)O[C@@]3(C(=O)N(Cc4cccc(I)c4)c4ccccc43)[C@@H]2C)cc1 here
## Output inactive

## Input Hi team, can someone confirm the assay call for COc1ccc(C#Cc2ccc3c(c2)[C@]2(C(=O)N3)[C@H](c3ccc(OCCO)cc3)N3[C@H](c4ccccc4)[C@H](c4ccccc4)OC(=O)[C@H]3[C@@H]2C(=O)Nc2nc3ccccc3s2)cc1 ?
## Output inactive

## Input Record request — test call for COCCOC(=O)N1C(=O)[C@@]2(c3cc(C#CCC(C(=O)OC)C(=O)OC)ccc31)[C@H](c1ccccc1OCCO)N1[C@H](c3ccccc3)[C@H](c3ccccc3)OC(=O)[C@H]1[C@@H]2C(=O)Nc1nc2ccccc2s1
## Output inactive

## Input Each molecule tested received a call. Report the one for CC(=O)N1Cc2ccccc2C[C@@]2(N=C(c3ccc(OCCCO)cc3)O[C@H]2c2ccccc2)C1=O .
## Output active

New cases:
## Input Recorded call for C=CCOC(=O)[C@H]1[C@@H]2C(=O)O[C@@H](c3ccccc3)[C@@H](c3ccccc3)N2[C@@H](c2ccc(OCCOC(=O)[C@H]3C[C@H]4C(=O)N[C@@H](CCCC[N+](C)(C)C)C(=O)N4[C@H]3c3ccc(O)cc3)cc2)[C@]12C(=O)Nc1ccccc12 ?
## Output inactive

## Input Test call for this molecule, please: C=CCN1C(=O)[C@]2(COC(c3ccc(OCCCO)cc3)=N2)Cc2ccccc21
## Output inactive

## Input Look up the recorded call for COC(=O)c1c2oc(c1C(=O)OC)C(=O)N[C@H](Cc1ccccc1)Cn1nncc1C1(CCCCC1)NC(=O)N[C@H](CO)CC2 in this test.
## Output inactive

## Input Recorded test call requested for [N-]=[N+]=Nc1ccccc1C[C@]1(C(=O)N2CCCCC2)N=C(c2ccc(OCCCO)cc2)O[C@H]1c1ccccc1N=[N+]=[N-]
## Output inactive

## Input Returns: the outcome recorded for COc1ccc(C(=O)Nc2cccc(CN3C(=O)[C@@]4(O[C@@H](CCn5cc([C@H](O)c6ccccc6)nn5)[C@H]([Si](C)(C)c5ccc(OC)cc5)[C@H]4C)c4ccccc43)c2)cc1 in this assay.
## Output inactive

## Input Identify the outcome logged in this assay for the molecule shown: COC(=O)[C@@]1(Cc2ccc(OC)cc2)[C@H]2c3cc(C(=O)N4CCCC4)n(C[C@H](O)CO)c3C[C@H]2CN1C(=O)c1ccccc1
## Output inactive

## Input Which outcome was assigned to C=CCC(OC(C)=O)[C@@H]1[C@@H](N(Cc2ccc(-c3cccc(C(F)(F)F)c3)o2)C(=O)c2ccc(C)cc2)c2cc(OCCCO)ccc2N1C(=O)c1ccc2ccccc2n1 (some centres not stated) in this test?
## Output inactive

## Input Identify the outcome logged in this assay for the molecule shown: Cc1ccc(N2C(=O)c3ccccc3[C@@H](C(=O)NCC(C)C)[C@@H]2c2ccc(CO)cc2)nc1
## Output inactive
